Measured IC50 by item
Target: Human immunodeficiency virus type 1 protease (Human immunodeficiency virus 1)
Assay: Binding activity against HIV-1 Protease
Numbered stars: 1 amine (or outer) side, 2 acyl side, 3 side chain; on linkers, the order of the positions; unused ones are H or OH. Square brackets hold non-standard residues; d marks the D form. Peptide text beside a SMILES is read from it. X1 = O=C([C@@H]1CCCN1CC(O)[C@H](Cc1ccccc1)N[*:1])[*:2]
# output: bare number, implied unit nM

Guide cases for IC50, answers given:
CC[C@H](C)[C@H](NC(=O)[C@@H]1CCCN1C[C@H](O)[C@H](Cc1ccccc1)NC(=O)[C@H](CC(N)=O)NC(=O)OCc1ccccc1)C(=O)N[C@H](C(=O)OC)C(C)C	13
CC(C)(C)OC(=O)[C@@H]1CCCN1C[C@@H](O)[C@H](Cc1ccccc1)NC(=O)[C@H](CC(N)=O)NC(=O)OCc1ccccc1	140
CC(C)(C)OC(=O)[C@@H]1CCCN1C[C@H](O)[C@H](Cc1ccccc1)NC(=O)[C@H](CC(N)=O)NC(=O)OCc1ccccc1	300

Let us move to another entry and its IC50.
Exercise: Given CC[C@H](C)[C@H](NC(=O)[C@@H]1CCCN1CC(O)[C@H](Cc1ccccc1)NC(=O)[C@H](CC(N)=O)NC(=O)[C@H](CC(C)C)NC(=O)[C@H](CO)NC(C)=O)C(=O)OC (some centres undefined) (Ac-SLN[X1]I-OMe) , respond with its IC50.
Key: 420
